Numbers sourced from patent US20130029928A1.

test: Phase I study CXR1002-001: plasma pharmacokinetics (LC-MS/MS); assay type: in vivo, human; conditions: human, plasma, oral, 200 mg, Patient 008 Dose 200 mg; 507 hr; read-out: Concentration

>  <Compound>
O=C(O)C(F)(F)C(F)(F)C(F)(F)C(F)(F)C(F)(F)C(F)(F)C(F)(F)F [CXR1002]

>  <Unit abbrev>
µM

>  <concentration at 507 h>
368

$$$$

* * *

assay: Phase I study CXR1002-001: plasma pharmacokinetics (LC-MS/MS); type: in vivo, human; details: human, plasma, oral, 750 mg, Patient 026, 750 mg, person, plasma, 676 hr; read-out: Concentration
Reported metric: concentration at 676 h

>  <Smiles>
O=C(O)C(F)(F)C(F)(F)C(F)(F)C(F)(F)C(F)(F)C(F)(F)C(F)(F)F

>  <Reported metric>
concentration at 676 h

>  <Readout value>
698 µM

$$$$
